- Test system: Actinomyces naeslundii
- procedure_summary: Antibacterial activity against Actinomyces naeslundii by CLSI M11-A6 agar dilution method
- Type: functional
attribute_measured: MIC50 (µg/mL)

molecule	qualifier	result_number
CN[C@H](CC(C)C)C(=O)N[C@H]1C(=O)N[C@@H](CC(N)=O)C(=O)N[C@H]2C(=O)N[C@H]3C(=O)N[C@H](C(=O)N[C@H](C(=O)O)c4cc(O)cc(O)c4-c4cc3ccc4O)[C@H](O)c3ccc(c(Cl)c3)Oc3cc2cc(c3O[C@@H]2O[C@H](CO)[C@@H](O)[C@H](O)[C@H]2O[C@H]2C[C@](C)(N)[C@H](O)[C@H](C)O2)Oc2ccc(cc2Cl)[C@H]1O [VANCOMYCIN]	=	0.5
Cc1ncc([N+](=O)[O-])n1CCO [METRONIDAZOLE]	=	1
CCCCCCCCCCNCCN[C@@]1(C)C[C@H](O[C@H]2[C@H](Oc3c4cc5cc3Oc3ccc(cc3Cl)[C@@H](O)[C@@H](NC(=O)[C@@H](CC(C)C)NC)C(=O)N[C@@H](CC(N)=O)C(=O)N[C@H]5C(=O)N[C@H]3C(=O)N[C@H](C(=O)N[C@H](C(=O)O)c5cc(O)c(CNCP(=O)(O)O)c(O)c5-c5cc3ccc5O)[C@H](O)c3ccc(c(Cl)c3)O4)O[C@H](CO)[C@@H](O)[C@@H]2O)O[C@@H](C)[C@H]1O [TELAVANCIN]	≤	0.12

----------
- System: Ruminococcus gnavus
- procedure_summary: Antibacterial activity against Ruminococcus gnavus by CLSI M11-A6 agar dilution method
- Format: functional
- study_conditions: Mediterraneibacter gnavus
In this section we review reported MIC90 values for a set of molecules.
attribute_measured: MIC90 (µg/mL)

smiles_structure	qualifier	result_number
CC(=O)NC[C@H]1CN(c2ccc(N3CCOCC3)c(F)c2)C(=O)O1	=	2
Cc1ncc([N+](=O)[O-])n1CCO	=	0.25
CCCCCCCCCC(=O)N[C@@H](Cc1c[nH]c2ccccc12)C(=O)N[C@H](CC(N)=O)C(=O)N[C@@H](CC(=O)O)C(=O)N[C@@H]1C(=O)NCC(=O)N[C@@H](CCCN)C(=O)N[C@@H](CC(=O)O)C(=O)N[C@H](C)C(=O)N[C@@H](CC(=O)O)C(=O)NCC(=O)N[C@H](CO)C(=O)N[C@@H]([C@H](C)CC(=O)O)C(=O)N[C@@H](CC(=O)c2ccccc2N)C(=O)O[C@@H]1C	=	0.25
CCCCCCCCCCNCCN[C@@]1(C)C[C@H](O[C@H]2[C@H](Oc3c4cc5cc3Oc3ccc(cc3Cl)[C@@H](O)[C@@H](NC(=O)[C@@H](CC(C)C)NC)C(=O)N[C@@H](CC(N)=O)C(=O)N[C@H]5C(=O)N[C@H]3C(=O)N[C@H](C(=O)N[C@H](C(=O)O)c5cc(O)c(CNCP(=O)(O)O)c(O)c5-c5cc3ccc5O)[C@H](O)c3ccc(c(Cl)c3)O4)O[C@H](CO)[C@@H](O)[C@@H]2O)O[C@@H](C)[C@H]1O	≤	0.12

----------
- System: Prevotella denticola
- procedure_summary: Antibacterial activity against Prevotella P denticola by CLSI M11-A6 agar dilution method
- Format: functional
In this section we review reported MIC50 values for a set of compounds.
attribute_measured: MIC50 (µg/mL)

smiles_structure	target_desc	attribute_measured	qualifier	result_number
CCCCCCCCCC(=O)N[C@@H](Cc1c[nH]c2ccccc12)C(=O)N[C@H](CC(N)=O)C(=O)N[C@@H](CC(=O)O)C(=O)N[C@@H]1C(=O)NCC(=O)N[C@@H](CCCN)C(=O)N[C@@H](CC(=O)O)C(=O)N[C@H](C)C(=O)N[C@@H](CC(=O)O)C(=O)NCC(=O)N[C@H](CO)C(=O)N[C@@H]([C@H](C)CC(=O)O)C(=O)N[C@@H](CC(=O)c2ccccc2N)C(=O)O[C@@H]1C	Prevotella denticola	MIC50	>	128
CCC[C@@H]1C[C@@H](C(=O)N[C@@H]([C@H]2O[C@H](SC)[C@H](O)[C@@H](O)[C@H]2O)[C@H](C)Cl)N(C)C1	Prevotella denticola	MIC50	≤	0.12
CCCCCCCCCCNCCN[C@@]1(C)C[C@H](O[C@H]2[C@H](Oc3c4cc5cc3Oc3ccc(cc3Cl)[C@@H](O)[C@@H](NC(=O)[C@@H](CC(C)C)NC)C(=O)N[C@@H](CC(N)=O)C(=O)N[C@H]5C(=O)N[C@H]3C(=O)N[C@H](C(=O)N[C@H](C(=O)O)c5cc(O)c(CNCP(=O)(O)O)c(O)c5-c5cc3ccc5O)[C@H](O)c3ccc(c(Cl)c3)O4)O[C@H](CO)[C@@H](O)[C@@H]2O)O[C@@H](C)[C@H]1O	Prevotella denticola	MIC50	=	8
CC(=O)NC[C@H]1CN(c2ccc(N3CCOCC3)c(F)c2)C(=O)O1	Prevotella denticola	MIC50	=	2
CN[C@H](CC(C)C)C(=O)N[C@H]1C(=O)N[C@@H](CC(N)=O)C(=O)N[C@H]2C(=O)N[C@H]3C(=O)N[C@H](C(=O)N[C@H](C(=O)O)c4cc(O)cc(O)c4-c4cc3ccc4O)[C@H](O)c3ccc(c(Cl)c3)Oc3cc2cc(c3O[C@@H]2O[C@H](CO)[C@@H](O)[C@H](O)[C@H]2O[C@H]2C[C@](C)(N)[C@H](O)[C@H](C)O2)Oc2ccc(cc2Cl)[C@H]1O	Prevotella denticola	MIC50	=	32
Cc1ncc([N+](=O)[O-])n1CCO	Prevotella denticola	MIC50	=	0.5

----------
- System: Prevotella bivia
- procedure_summary: Antibacterial activity against Prevotella bivia by CLSI M11-A6 agar dilution method
- Assay type: functional

smiles_structure	MIC50 (µg/mL)
CN[C@H](CC(C)C)C(=O)N[C@H]1C(=O)N[C@@H](CC(N)=O)C(=O)N[C@H]2C(=O)N[C@H]3C(=O)N[C@H](C(=O)N[C@H](C(=O)O)c4cc(O)cc(O)c4-c4cc3ccc4O)[C@H](O)c3ccc(c(Cl)c3)Oc3cc2cc(c3O[C@@H]2O[C@H](CO)[C@@H](O)[C@H](O)[C@H]2O[C@H]2C[C@](C)(N)[C@H](O)[C@H](C)O2)Oc2ccc(cc2Cl)[C@H]1O	32
Cc1ncc([N+](=O)[O-])n1CCO	0.5
CC(=O)NC[C@H]1CN(c2ccc(N3CCOCC3)c(F)c2)C(=O)O1	2

----------
- Test system: Eggerthella lenta
- procedure_summary: Antibacterial activity against Eggerthella lenta by CLSI M11-A6 agar dilution method
- Type: functional
In this section we review reported MIC90 values for a set of compounds.

compound	MIC90, µg/mL
Cc1ncc([N+](=O)[O-])n1CCO [METRONIDAZOLE]	128
CCCCCCCCCCNCCN[C@@]1(C)C[C@H](O[C@H]2[C@H](Oc3c4cc5cc3Oc3ccc(cc3Cl)[C@@H](O)[C@@H](NC(=O)[C@@H](CC(C)C)NC)C(=O)N[C@@H](CC(N)=O)C(=O)N[C@H]5C(=O)N[C@H]3C(=O)N[C@H](C(=O)N[C@H](C(=O)O)c5cc(O)c(CNCP(=O)(O)O)c(O)c5-c5cc3ccc5O)[C@H](O)c3ccc(c(Cl)c3)O4)O[C@H](CO)[C@@H](O)[C@@H]2O)O[C@@H](C)[C@H]1O [TELAVANCIN]	0.5
CCC[C@@H]1C[C@@H](C(=O)N[C@@H]([C@H]2O[C@H](SC)[C@H](O)[C@@H](O)[C@H]2O)[C@H](C)Cl)N(C)C1 [CLINDAMYCIN]	1
CCCCCCCCCC(=O)N[C@@H](Cc1c[nH]c2ccccc12)C(=O)N[C@H](CC(N)=O)C(=O)N[C@@H](CC(=O)O)C(=O)N[C@@H]1C(=O)NCC(=O)N[C@@H](CCCN)C(=O)N[C@@H](CC(=O)O)C(=O)N[C@H](C)C(=O)N[C@@H](CC(=O)O)C(=O)NCC(=O)N[C@H](CO)C(=O)N[C@@H]([C@H](C)CC(=O)O)C(=O)N[C@@H](CC(=O)c2ccccc2N)C(=O)O[C@@H]1C	32
CC(=O)NC[C@H]1CN(c2ccc(N3CCOCC3)c(F)c2)C(=O)O1 [LINEZOLID]	8
CN[C@H](CC(C)C)C(=O)N[C@H]1C(=O)N[C@@H](CC(N)=O)C(=O)N[C@H]2C(=O)N[C@H]3C(=O)N[C@H](C(=O)N[C@H](C(=O)O)c4cc(O)cc(O)c4-c4cc3ccc4O)[C@H](O)c3ccc(c(Cl)c3)Oc3cc2cc(c3O[C@@H]2O[C@H](CO)[C@@H](O)[C@H](O)[C@H]2O[C@H]2C[C@](C)(N)[C@H](O)[C@H](C)O2)Oc2ccc(cc2Cl)[C@H]1O [VANCOMYCIN]	4

----------
In this section we review reported MIC90 values for a set of compounds.
- Tested on: Fusobacterium mortiferum
- procedure_summary: Antibacterial activity against Fusobacterium mortiferum by CLSI M11-A6 agar dilution method
- Type: functional
attribute_measured: MIC90 (µg/mL)

compound	target_desc	attribute_measured	qualifier	result_number
CCC[C@@H]1C[C@@H](C(=O)N[C@@H]([C@H]2O[C@H](SC)[C@H](O)[C@@H](O)[C@H]2O)[C@H](C)Cl)N(C)C1 [CLINDAMYCIN]	Fusobacterium mortiferum	MIC90	=	32
Cc1ncc([N+](=O)[O-])n1CCO [METRONIDAZOLE]	Fusobacterium mortiferum	MIC90	=	0.25
CCCCCCCCCC(=O)N[C@@H](Cc1c[nH]c2ccccc12)C(=O)N[C@H](CC(N)=O)C(=O)N[C@@H](CC(=O)O)C(=O)N[C@@H]1C(=O)NCC(=O)N[C@@H](CCCN)C(=O)N[C@@H](CC(=O)O)C(=O)N[C@H](C)C(=O)N[C@@H](CC(=O)O)C(=O)NCC(=O)N[C@H](CO)C(=O)N[C@@H]([C@H](C)CC(=O)O)C(=O)N[C@@H](CC(=O)c2ccccc2N)C(=O)O[C@@H]1C	Fusobacterium mortiferum	MIC90	>	128
CC(=O)NC[C@H]1CN(c2ccc(N3CCOCC3)c(F)c2)C(=O)O1 [LINEZOLID]	Fusobacterium mortiferum	MIC90	=	1
CN[C@H](CC(C)C)C(=O)N[C@H]1C(=O)N[C@@H](CC(N)=O)C(=O)N[C@H]2C(=O)N[C@H]3C(=O)N[C@H](C(=O)N[C@H](C(=O)O)c4cc(O)cc(O)c4-c4cc3ccc4O)[C@H](O)c3ccc(c(Cl)c3)Oc3cc2cc(c3O[C@@H]2O[C@H](CO)[C@@H](O)[C@H](O)[C@H]2O[C@H]2C[C@](C)(N)[C@H](O)[C@H](C)O2)Oc2ccc(cc2Cl)[C@H]1O [VANCOMYCIN]	Fusobacterium mortiferum	MIC90	>	128
CCCCCCCCCCNCCN[C@@]1(C)C[C@H](O[C@H]2[C@H](Oc3c4cc5cc3Oc3ccc(cc3Cl)[C@@H](O)[C@@H](NC(=O)[C@@H](CC(C)C)NC)C(=O)N[C@@H](CC(N)=O)C(=O)N[C@H]5C(=O)N[C@H]3C(=O)N[C@H](C(=O)N[C@H](C(=O)O)c5cc(O)c(CNCP(=O)(O)O)c(O)c5-c5cc3ccc5O)[C@H](O)c3ccc(c(Cl)c3)O4)O[C@H](CO)[C@@H](O)[C@@H]2O)O[C@@H](C)[C@H]1O [TELAVANCIN]	Fusobacterium mortiferum	MIC90	>	64

Where do these numbers come from? They come from ChEMBL document CHEMBL1671662.
